Target: recombinant human CDK1/Cyclin B complex (Homo sapiens, UniProt P06493)
Construct: M15 E. coli for the Rb substrate
Sequence (P06493 whole entry): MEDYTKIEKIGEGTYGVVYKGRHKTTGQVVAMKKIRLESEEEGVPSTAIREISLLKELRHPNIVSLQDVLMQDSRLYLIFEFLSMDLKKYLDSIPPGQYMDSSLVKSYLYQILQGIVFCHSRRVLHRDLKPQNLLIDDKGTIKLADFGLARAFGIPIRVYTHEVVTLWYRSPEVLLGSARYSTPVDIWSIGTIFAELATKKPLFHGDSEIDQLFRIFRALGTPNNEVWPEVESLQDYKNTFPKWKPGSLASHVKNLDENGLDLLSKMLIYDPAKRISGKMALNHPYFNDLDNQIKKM
Sequence (P14635 whole entry partner): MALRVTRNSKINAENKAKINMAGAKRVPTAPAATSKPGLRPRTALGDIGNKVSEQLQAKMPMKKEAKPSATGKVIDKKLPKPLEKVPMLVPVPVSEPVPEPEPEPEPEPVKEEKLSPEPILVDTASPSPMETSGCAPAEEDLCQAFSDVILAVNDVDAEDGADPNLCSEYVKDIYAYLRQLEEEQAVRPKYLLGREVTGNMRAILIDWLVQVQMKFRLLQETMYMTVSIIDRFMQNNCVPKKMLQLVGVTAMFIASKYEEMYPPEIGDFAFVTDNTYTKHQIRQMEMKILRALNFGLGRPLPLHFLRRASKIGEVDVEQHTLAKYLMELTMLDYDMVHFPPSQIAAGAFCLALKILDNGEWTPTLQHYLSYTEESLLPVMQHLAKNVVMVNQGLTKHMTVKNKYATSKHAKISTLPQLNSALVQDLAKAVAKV
Experiment: CDK1/Cyclin B kinase assay (FlashPlate or HTRF)
Settings: Rb protein substrate, Ki=IC50/(1+[S]/Km)
experimental.endpoint: Ki (nM)

1. O=C1N=C(NCc2cccs2)S/C1=C\c1ccc2ncncc2c1 = 1220
2. O=C1N=C(NCCc2cccc(F)c2)S/C1=C\c1ccc2ncncc2c1 = 881
3. COc1cc(F)ccc1NC1=NC(=O)/C(=C/c2ccc3ncncc3c2)S1 = 1840
4. O=C1N=C(N[C@@H](CO)Cc2ccccc2)S/C1=C\c1ccc2ncncc2c1 = 1110
